Entry source: patent US20240010655A1

test system: NCI-H1299 cell; experiment: Inhibition of proliferation of NCI-H1299 cell, CCK-8 method; assay type: cell-based; conditions: Homo sapiens, NCI-H1299, 72 h; CCK-8, 3 days; read-out: IC50, inhibitory effect on the proliferation of NCI-H1299 cell
Observable: IC50 (µM)

Consider the worked cases shown below.
INSERT INTO results (compound, readout_number) VALUES
  ('Cc1cc(Nc2ncc3c(n2)N2CCN=C2N(c2c(Cl)cccc2Cl)C3=O)ccc1N1C[C@H](C)N(C)[C@@H](C)C1 [Example 8]', 0.214),
  ('[2H]C([2H])([2H])N1[C@H](C)CN(c2ccc(Nc3ncc4c(n3)N3CCN=C3N(c3c(Cl)cccc3Cl)C4=O)cc2C)C[C@@H]1C [Example 2]', 0.123),
  ('Cc1cc(Nc2ncc3c(n2)N2CCN=C2N(c2c(Cl)cccc2Cl)C3=O)ccc1C1CCN(C)CC1 [Example 12]', 0.079);

a. Cc1cc(Nc2ncc3c(n2)N2CCN=C2N(c2c(Cl)cccc2Cl)C3=O)ccc1C1CCNCC1 [Example 9]
b. Cc1cc(Nc2ncc3c(n2)N2CCN=C2N(c2c(Cl)cccc2Cl)C3=O)cc(F)c1N1C[C@@H](C)N(C)[C@@H](C)C1 [Example 5]
c. Cc1cc(Nc2ncc3c(n2)N2CCN=C2N(c2c(Cl)cccc2Cl)C3=O)cc(F)c1C1CCN(C)CC1 [Example 13]
Q: Rank by IC50 (largest to smallest). Give the labels in the order requested.
A: a, b, c

1. C[C@@H]1CN(c2ccc(Nc3ncc4c(n3)N3CCN=C3N(c3c(Cl)cccc3Cl)C4=O)cc2Br)C[C@H](C)N1C [Example 3]
2. Cc1cc(Nc2ncc3c(n2)N2CCN=C2N(c2c(Cl)cccc2Cl)C3=O)ccc1N1C[C@@H](C)N[C@@H](C)C1 [Example 1]
Q: // which entry has the larger IC50 value, 1 or 2 ? Mark your answer with the label of the selected entry.
A: 1
(1: 0.382 µM, 2: 0.071 µM)
